B1: LINE1-full (parent)
chain: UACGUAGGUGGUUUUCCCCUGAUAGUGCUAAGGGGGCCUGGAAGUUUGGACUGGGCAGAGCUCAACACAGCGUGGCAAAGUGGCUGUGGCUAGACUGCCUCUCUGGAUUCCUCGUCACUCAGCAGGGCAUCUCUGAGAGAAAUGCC

variants of: B1; assay: self-cleavage, relative activity (ratio to wild type); higher = more cleavage; in vitro, sequencing; the parent is a self-cleaving ribozyme
Binary call on self-cleavage: Met from 0.9 upward, Not met beneath that.

- Sequence record: "UACGUAGGUGGUUUUCCCCUGAUAGUGCUAAGGGGGCCUGGAAGUUUGGACUGGGCAGAGCUCAACACAGCGUGGCAAAGUGGCCGUGGCUAGACUGCCUCUCUGGAUUCCUCGUCACUCAGCAGGGCAUCUCUGAGAGAAAAGCC [U85C U143A]"
  Class assignment: "Not met"
- Sequence record: "UACGUAGGUGGUUUUCCCCUGAUAGUUCUAAGGGGGCCUGGAAGUUUGGACUGGGCAGAGCUCAACACAGCGCGGCAAAGUGGCUGUGGCUAGACUGCCUCUCUGGAUUCCUCGUCACUCAGCAGGGCAUCUCUGAGAGAAAUGCC [G27U U73C]"
  Class assignment: "Met"
- Sequence record: "UACGUAGGUGGUUUUACCCUGAUAGUGCUAAGGGGGCCUGGAAGUUUGGACUGGGCAGAGCUCAACACAGCGUGGCAAAGUGGCUGUGGCUAGACUGCCUCUCUGGAUUCCUCGCCACUCAGCAGGGCAUCUCUGAGAGAAAUGCC [C16A U115C]"
  Class assignment: "Not met"
- Sequence record: "UACGUAGGUGGUUUUCCCCUGAUAGUGCCAAGGGGGCCUGGAAGUUUGGACUGGGCAGAGAUCAACACAGCGUGGCAAAGUGGCUGUGGCUAGACUGCCUCUCUGGAUUCCUCGUCACUCAGCAGGGCAUCUCUGAGAGAAAUGCC [U29C C61A]"
  Class assignment: "Not met"
- Sequence record: "UACGUAGGUGGUCUUCCCCUGAAAGUGCUAAGGGGGCCUGGAAGUUUGGACUGGGCAGAGCUCAACACAGCGUGGCAAAGUGGCUGUGGCUAGACUGCCUCUCUGGAUUCCUCGUCACUCAGCAGGGCAUCUCUGAGAGAAAUGCC [U13C U23A]"
  Class assignment: "Met"

Query: Kindly determine if self-cleavage recorded for UACGUAGGUGGUUUUCCCCUGAUAGUGCUAAGGGGGCCUGGAAGUUUGGACUGGGCAGAGCUCAACACAGCGUGGCAAGGUGGCUGUGGCUAGACUGCCUCUCUAGAUUCCUCGUCACUCAGCAGGGCAUCUCUGAGAGAAAUGCC [A79G G105A] is above or exactly 0.9.
Response: Met

Query: Kindly determine if self-cleavage recorded for UACGUAGGUGGUUUUCUCCUGAUAGUGCUAAGGGGGCCUGGAAGUUUGUACUGGGCAGAGCUCAACACAGCGUGGCAAAGUGGCUGUGGCUAGACUGCCUCUCUGGAUUCCUCGUCACUCAGCAGGGCAUCUCUGAGAGAAAUGCC [C17U G49U] is above or exactly 0.9.
Response: Met

Reference for the values: the RNAGym collection of RNA variant scans (doi:10.7554/elife.90254)
